- Tested on: COLO 205
- test name: NCI tumour cell line growth inhibition, 48 h
Activity calls are given as the source filed them. No stated cut-off is given here; in the data, active = GI50 up to about 1.1 µM and inactive = higher.
Give GI50 for every item shown.

Problem: # GI50 lookup, item `CC(C)(C)/N=c1/n(C(C)(C)C)oc(=O)n1C(C)(C)C`
Result: > 100 µM (inactive)

Problem: Query CCC1OC2C(CC=C(C)C)=C3OC(C)(O)C(C)(CC)C(OC(C)=O)C3=C3OC(=O)C=C1C32 (stereo not given) next
Result: 28.2 µM (inactive)

Problem: Query `CC[N+](C)(C)c1ccc(C(=C2C=CC(=[N+](C)C)C=C2)c2ccc(N(C)C)cc2)cc1` next
Result: 5.31 µM (inactive)

Problem: Query COC(=O)C1CCC(=O)N1C(c1ccc(OC)cc1)c1ccc(OC)cc1 (stereo not given) next
Result: > 100 µM (inactive)

Problem: Query `COc1cccc(/C=N/NC(N)=O)c1O` next
Result: > 100 µM (inactive)

Problem: Query `O=c1c2cc(S(=O)(=O)Nc3ccc(Cl)cc3Cl)ccc2ncn1NS(=O)(=O)c1cccc2ccccc12` next
Result: 43.7 µM (inactive)

Problem: Query COC(=O)[C@]1(C)CCCC2(C)C3=C(CCC21)CC1(CC3)SCCS1 (stereo not given in full) next
Result: > 10 µM (inactive)

Problem: Query `Cc1cc2oc(C)c(S(=O)(=O)NC(=O)Nc3ccc(Cl)cc3)c(=O)c2c(=O)o1` next
Result: > 100 µM (inactive)

Problem: Query Cc1nnc2n1N=C(c1ccccc1)C(c1ccccc1)S2 (stereo not given) next
Result: 21.3 µM (inactive)

Problem: Query `N=C(N)SC(c1ccccc1)c1ccccc1` next
Result: 21.8 µM (inactive)

* * *

- Test system: OVCAR-5
- test name: NCI tumour cell line growth inhibition, 48 h
The source made the active and inactive calls. Rule as the data show it: active = GI50 up to about 1.1 µM and inactive = higher.
recorded metric: GI50

Problem: # GI50 lookup, item `CC(=O)OC/C=C/[C@H](O[Si](C)(C)C(C)(C)C)[C@@H](O)/C=C/COC(C)=O`
Result: > 100 µM (inactive)

Problem: Query CC(C)(C)C1=C(Br)C(Br)(C(C)(C)C)OP1(=O)c1ccccc1 (stereo unspecified) next
Result: > 100 µM (inactive)

Problem: Query `Cc1ccc(S(=O)(=O)n2c3c(c4ccccc42)CCN2C[C@H]([C@H](C)Br)CC[C@@H]32)cc1` next
Result: > 100 µM (inactive)

Problem: Query CCOC(=O)C1(C/C=C/CBr)CCc2ccccc2C1=O (stereo unspecified) next
Result: 29 µM (inactive)

Problem: Query `O=C(NCCCl)NCc1ccccc1` next
Result: > 100 µM (inactive)

Problem: Query `CS(=O)(=O)O[C@H]1CN2C[C@@H](O)[C@@H](O)[C@H]2[C@H]1CO.[B]` next
Result: > 100 µM (inactive)

Problem: Query `N=C(N)SC(c1ccccc1)c1ccccc1` next
Result: 14.2 µM (inactive)

Problem: Query `N=c1oc2ccc(Cl)cc2cc1C(=O)NCc1ccccc1` next
Result: > 100 µM (inactive)

Problem: Query COc1ccc2c(c1)C(=O)CC(N)C2 (stereo unspecified) next
Result: > 100 µM (inactive)

Problem: Query CSc1nc(Br)nc2c1ncn2C1CC(Oc2ccc(C)cc2)C(COc2ccc(C)cc2)O1 (stereo unspecified) next
Result: > 100 µM (inactive)

Problem: Query `Cc1ccc(C#CS(=O)(=O)C(F)(F)F)cc1` next
Result: > 100 µM (inactive)

* * *

- System: NCI-H522
- test name: NCI tumour cell line growth inhibition, 48 h
Activity calls are given as the source filed them. No stated cut-off is given here; in the data, active = GI50 up to about 1.1 µM and inactive = higher. Where a SMILES comes first, the peptide text is derived from it. The star is where a group is joined. Cbz = O=C(OCc1ccccc1)*
Pick from 1 = active, -1 = inactive when you respond.

Problem: Write down the call the test reported for this molecule. Item: `O=C(O)c1ccc(Nc2c3ccccc3nc3ccccc23)cc1`
Result: -1

Problem: Query `CCCCCCCCCCCC(=O)c1c(O)cc(C)oc1=O` next
Result: -1

Problem: Query CCOC(=O)CCC(NC(=O)CNC(=O)CNC(=O)C(CCC(=O)OCC)NC(=O)C(CCC(=O)OCC)NC(=O)C(CCC(=O)OCC)NC(=O)OCc1ccccc1)C(=O)NC(CCC(=O)OCC)C(=O)NC(CCC(=O)OCC)C(=O)OCC (stereo not drawn) (Cbz-E(OEt)E(OEt)E(OEt)GGE(OEt)E(OEt)E(OEt)-OEt; configuration not given here) next
Result: -1

Problem: Query `Cc1nn(C)c2c1C(=O)N(C)CC(=O)N2C` next
Result: -1

Problem: Query CC(C)(C)[Si](C)(C)OCC1OC(n2cc(F)c(=O)[nH]c2=O)CC1O[Si](C)(C)C(C)(C)C (stereo not drawn) next
Result: -1

Problem: Query `N#Cc1c(-c2ccccc2)cc(-c2cccs2)c(C#N)c1N` next
Result: -1

Problem: Query `CCCc1cc(=O)oc2c3c(c4c(c12)OC(C)(C)C=C4)O[C@@H](C)[C@H](C)C3=O` next
Result: -1

Problem: Query `Oc1c(Br)ccc2cccnc12` next
Result: 1

Problem: Query O=P1(N(CCCl)CCCl)NCCCO1 (stereo not drawn) [CYCLOPHOSPHAMIDE ANHYDROUS] next
Result: -1

Problem: Query `O=C(c1ccco1)N1CCN(C(=O)c2ccco2)C1=S` next
Result: -1

Problem: Query `C/C(=N\NC(=O)CC(=O)N(C(=O)c1ccc(Cl)cc1)c1ccc(C)cc1)c1ccccc1O` next
Result: -1

Problem: Query `N#Cc1cc(-c2nc3cc(F)ccc3s2)ccc1N` next
Result: -1

Problem: Query CCCCCCC1OC23OC1CCC2C(O)CCC3O (stereo not drawn) next
Result: -1

Problem: Query C[C@H]1[C@H](C)CC[C@]2(C(=O)OC3OC(CO)C(O)C(O)C3O)CC[C@]3(C)C(=CC[C@@H]4[C@@]5(C)C[C@H]6OC(=O)c7cc(O)c(O)c(O)c7-c7c(cc(O)c(O)c7O)C(=O)O[C@@H]6C(CO)(CO)[C@@H]5CC[C@]43C)[C@H]12 (stereo partly drawn) next
Result: -1

Problem: Query `Cc1cc2oc(=O)c(Cl)c(Cl)c2c(C)c1Cl` next
Result: -1

Problem: Query `C/C=C/COc1cc(NC(=S)OC(C)C)ccc1Cl.C/C=C\COc1cc(NC(=S)OC(C)C)ccc1Cl` next
Result: -1

Problem: Query `COC(=O)c1[nH]c(=S)[nH]c(=O)c1-c1ccc(Cl)cc1` next
Result: -1

Problem: Query `CN(C)/C=N\c1nncc2[nH]cnc12` next
Result: -1

* * *

- Tested on: MOLT-4
- test name: NCI tumour cell line growth inhibition, 48 h
The source made the active and inactive calls. No stated cut-off is given here; in the data, active = GI50 up to about 1.1 µM and inactive = higher.
Pick from true (1) (active), false (0) (inactive) when you respond.

Problem: Write down the call the test reported for this compound. Item: `Cc1[nH]c(-c2ccccc2)c(-c2ccc(Cl)cc2)c1C(=O)ONC(=O)c1ccccc1`
Result: false (0)

Problem: Query CCC1(O)CC(OC2CC(N(C)C)C(OC3CC(O)C(OC4OC(C)C(=O)C=C4N)C(C)O3)C(C)O2)c2c(O)c3c(c(O)c2C1C(=O)OC)C(=O)c1cccc(O)c1C3=O (stereo not given) next
Result: true (1)

Problem: Query `CCCCCCCCCCCC(=O)c1c(O)cc(C)oc1=O` next
Result: false (0)

Problem: Query `O=C(c1cc(Br)ccc1O)c1cc(Br)ccc1O` next
Result: false (0)

Problem: Query CCOC(=O)c1c(N)sc2c1C(C(=O)OCC)CC2 (stereo not given) next
Result: false (0)

* * *

Give GI50 for every item shown.
- Test system: NCI/ADR-RES
- test name: NCI tumour cell line growth inhibition, 48 h
Activity calls are given as the source filed them. Cut-off read from the data, not from the text of the source: active = GI50 up to about 1.1 µM and inactive = higher.

Problem: Provide value of GI50 for this record tested with NCI/ADR-RES: N#Cc1c(-c2ccccc2)c(C#N)c(=S)n(C2OCC(O)C(O)C2O)c1N (stereo unspecified)
Result: > 100 µM (inactive)

Problem: Query CC(C)(C)OC(=O)C1CC[C@@H](CC(=O)Oc2ccc([N+](=O)[O-])cc2)N1 (stereo partly specified) next
Result: > 100 µM (inactive)

Problem: Query `O=C(c1nsc(Cl)c1Cl)N1CCCCC1` next
Result: > 100 µM (inactive)

Problem: Query CC1(C)Oc2ccc3c(=O)c4ccccc4oc3c2C1C(=O)O (stereo unspecified) next
Result: > 100 µM (inactive)

Problem: Query CC(C)(C)C1=C(Br)C(Br)(C(C)(C)C)OP1(=O)c1ccccc1 (stereo unspecified) next
Result: > 100 µM (inactive)

Problem: Query `N=C(N)SC(c1ccccc1)c1ccccc1` next
Result: 17.2 µM (inactive)

Problem: Query `CN(C)c1ccc(/C=C(\NC(=O)c2ccccc2)C(=O)Nc2cccc(C(=O)NCCCO)c2)cc1` next
Result: > 100 µM (inactive)

Problem: Query O=P1(N(CCCl)CCCl)NCCCO1 (stereo unspecified) [CYCLOPHOSPHAMIDE ANHYDROUS] next
Result: > 250 µM (inactive)

Problem: Query `Cc1ccc(C(=O)NN=C(/N=N/c2cccc(C)c2)c2ccc(N(C)C)cc2)cc1` next
Result: > 100 µM (inactive)

Problem: Query `CCNc1nc(N)c(C(=O)c2ccc(Cl)cc2)s1` next
Result: 42.1 µM (inactive)

Problem: Query COC(=O)/C=C1\C(CO[Si](C)(C)C(C)(C)C)OC(n2cc(C)c(=O)n(C)c2=O)C1O[Si](C)(C)C(C)(C)C (stereo unspecified) next
Result: > 100 µM (inactive)
